# maps each entry to its pKa
# Experimental protocol: Determination of pKa of formulated lipids (TNS fluorescence assay in lipid nanoparticles)
# Format: physicochemical
# Conditions: cationic lipid formulated in LNP (cationic lipid/DSPC/cholesterol/PEG-lipid 47.5/10/40.7/1.8 mol %), pH of half-maximal fluorescence
# Experimental: As described elsewhere, the pKa of formulated cationic lipids is correlated with the effectiveness of LNPs for delivery of nucleic acids (see Jayaraman et al, Angewandte Chemie, International Edition (2012), 51(34), 8529-8533; Semple et al, Nature Biotechnology 28, 172-176 (2010)). The preferred range of pKa is ˜5 to ˜7. The pKa of each cationic lipid was determined in lipid nanoparticles using an assay based on fluorescence of 2-(p-toluidino)-6-napthalene sulfonic acid (TNS). […]
Provide a numeric answer; units are not to be included.

A selection of reference data follows.
>>> print(df.to_string())
                                   molecule  measurement_label  quantitative_result
0  CCCCCCCCCC(OC(=O)CCCCCN(CCCO)CCCCCC(=O)OC(CCCCCCCCC)C(F)(F)C(F)(F)F)C(F)(F)C(F)(F)F (centres unmarked)                pKa                 5.92
1  CCCCCCCCCC(OC(=O)CCCCCN(CCCCCO)CCCCCC(=O)OC(CCCCCCCCC)C(F)(F)C(F)(F)F)C(F)(F)C(F)(F)F (centres unmarked)                pKa                 5.88
2  CCCCCCCCCC(CC)OC(=O)CCCCCN(CCCCO)CCCCCC(=O)OC(CC)CCCCCCCCC (centres unmarked) [I-3 analogue, reference compound]                pKa                 6.62

Q: # lookup: pKa of CCCCCCCCCC(OC(=O)CCCCCN(CCCCO)CCCCCC(=O)OC(CCCCCCCCC)C(F)(F)C(F)(F)F)C(F)(F)C(F)(F)F (centres unmarked)
A: 6.03

Q: Request: CCCCCCCCCC(OC(=O)CCCCCCCN(CCO)CCCCCCCC(=O)OC(CCCCCCCCC)C(F)(F)C(F)(F)F)C(F)(F)C(F)(F)F (centres unmarked)
A: 5.88
